Metric: melting point

Solved entries:
The compound listed as `COc1ccc(N2CCOCC2)c2sc(NC(=O)N3CC4CC[C@@](C)(C3)C4(C)C)nc12` has a reported melting point of 185 to 189 °C

melting point reading for `COc1ccc(N2CCOCC2)c2sc(NC(=O)N(C)C3CCCCCC3)nc12` : 198 to 200 °C

Next:
melting point in this record for `COc1ccc(N2CCOCC2)c2sc(NC(=O)N(C)C3CCC(F)(F)CC3)nc12` : 189 to 192 °C

Documented melting point of `COc1ccc(N2CCOCC2)c2sc(NC(=O)NC3CCCC3)nc12` : 191 to 194 °C

Lab note: measured melting point of `COc1ccc(N2CCOCC2)c2sc(NC(=O)N(C)[C@H]3CC[C@@H](O)CC3)nc12` was 169 to 171 °C

The recorded melting point for entry `COc1ccc(N2CCOCC2)c2sc(NC(=O)N(C)[C@H]3CC[C@@H](F)CC3)nc12` equals 201 to 204 °C

Just so you know, measured melting point for `COc1ccc(N2CCOCC2)c2sc(NC(=O)N(C)[C@H]3CC[C@H](O)CC3)nc12` came out at 158 to 162 °C

Per the record, `COc1ccc(N2CCOCC2)c2sc(NC(=O)N3C[C@@H]4CC[C@H]3C4)nc12` has melting point of 149 °C

Item: `COc1ccc(N2CCOCC2)c2sc(NC(=O)N(C)C3CCOCC3)nc12` | melting point: 240 to 242 °C

compound `COc1ccc(N2CCOCC2)c2sc(NC(=O)N(C)[C@H]3CC[C@H](OC)CC3)nc12` , melting point observed: 211 to 213 °C

Lookup result for `COc1ccc(N2CCOCC2)c2sc(NC(=O)N(C)[C@H]3CC[C@@H](OC)CC3)nc12` ; measured melting point: 198 to 200 °C

Field melting point (entry `COc1ccc(N2CCOCC2)c2sc(NC(=O)N(C)C3CCCC3)nc12` ) reads 110 to 125 °C

get_value(item= COc1ccc(N2CCOCC2)c2sc(NC(=O)N3CC4CCC3CO4)nc12 (stereo not shown) , readout=melting point) returns 164 to 170 °C

----------
System Tested: human adenosine A2A receptor (Homo sapiens, UniProt P29274)
Construct: expressed in transfected cells; host or cells: CHO cells, semliki forest virus expression system; washed membrane pellet used
Sequence (P29274 whole entry): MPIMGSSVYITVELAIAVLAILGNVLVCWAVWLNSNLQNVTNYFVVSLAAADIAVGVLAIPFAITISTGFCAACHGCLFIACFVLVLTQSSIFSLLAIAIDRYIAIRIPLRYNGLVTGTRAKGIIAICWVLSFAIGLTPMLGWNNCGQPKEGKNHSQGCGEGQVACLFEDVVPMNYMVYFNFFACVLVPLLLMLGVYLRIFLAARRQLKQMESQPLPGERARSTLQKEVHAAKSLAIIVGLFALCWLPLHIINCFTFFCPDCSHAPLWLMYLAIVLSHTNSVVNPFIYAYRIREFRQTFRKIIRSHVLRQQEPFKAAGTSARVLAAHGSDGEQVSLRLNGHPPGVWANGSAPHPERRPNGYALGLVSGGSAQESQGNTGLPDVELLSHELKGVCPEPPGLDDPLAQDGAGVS
Assay Details: [3H]-SCH-58261 binding assay, human adenosine A2A receptor (CHO cell membranes, SPA)
Applied Conditions: displacement of [3H]-SCH-58261 (1 nM); recombinant receptor in CHO membranes; Ki by Cheng-Prussoff equation; read-out: hA2 (pKi) (converted)
Procedure: Human Adenosine A2A Receptor The human adenosine A2A receptor was recombinantly expressed in chinese hamster ovary (CHO) cells using the semliki forest virus expression system. Cells were harvested, washed twice by centrifugation, homogenised and again washed by centrifugation. […] Assay plates were incubated for 1 hour at room temperature before centrifugation and then bound ligand determined using a Packard Topcount scintillation counter. […]
Metric: Ki (nM)

# count of solved cases: 2
Note to self: Ki recorded for `COc1ccc(N2CCOCC2)c2sc(NC(=O)N(C)C3CCC(F)(F)CC3)nc12` was 10

compound `COc1ccc(N2CCOCC2)c2sc(NC(=O)N3CCC(CNS(C)(=O)=O)CC3)nc12` , Ki observed: 15.8

a. COc1ccc(N2CCOCC2)c2sc(NC(=O)N(C)[C@H]3CC[C@H](OC)CC3)nc12
b. O=C(Nc1nc2c(Cl)ccc(N3CCCCC3)c2s1)NC1CCCCC1
c. COc1ccc(N2CCOCC2)c2sc(NC(=O)N3CCC4(CCNC4=O)CC3)nc12
Rank order required: Ki, descending. Provide the ranking by listing each label in its place in the requested order.
a, c, b
(a: 25.1 nM, c: 6.31 nM, b: 2.51 nM)
